These entries and their values trace back to patent US4719229A.

# Tested Target: HMG-CoA reductase (Rattus norvegicus)
# Construct: from tissue; inferred from the cited J. Med. Chem. 1985, 28, 347
# Sequence (P51639 1-887): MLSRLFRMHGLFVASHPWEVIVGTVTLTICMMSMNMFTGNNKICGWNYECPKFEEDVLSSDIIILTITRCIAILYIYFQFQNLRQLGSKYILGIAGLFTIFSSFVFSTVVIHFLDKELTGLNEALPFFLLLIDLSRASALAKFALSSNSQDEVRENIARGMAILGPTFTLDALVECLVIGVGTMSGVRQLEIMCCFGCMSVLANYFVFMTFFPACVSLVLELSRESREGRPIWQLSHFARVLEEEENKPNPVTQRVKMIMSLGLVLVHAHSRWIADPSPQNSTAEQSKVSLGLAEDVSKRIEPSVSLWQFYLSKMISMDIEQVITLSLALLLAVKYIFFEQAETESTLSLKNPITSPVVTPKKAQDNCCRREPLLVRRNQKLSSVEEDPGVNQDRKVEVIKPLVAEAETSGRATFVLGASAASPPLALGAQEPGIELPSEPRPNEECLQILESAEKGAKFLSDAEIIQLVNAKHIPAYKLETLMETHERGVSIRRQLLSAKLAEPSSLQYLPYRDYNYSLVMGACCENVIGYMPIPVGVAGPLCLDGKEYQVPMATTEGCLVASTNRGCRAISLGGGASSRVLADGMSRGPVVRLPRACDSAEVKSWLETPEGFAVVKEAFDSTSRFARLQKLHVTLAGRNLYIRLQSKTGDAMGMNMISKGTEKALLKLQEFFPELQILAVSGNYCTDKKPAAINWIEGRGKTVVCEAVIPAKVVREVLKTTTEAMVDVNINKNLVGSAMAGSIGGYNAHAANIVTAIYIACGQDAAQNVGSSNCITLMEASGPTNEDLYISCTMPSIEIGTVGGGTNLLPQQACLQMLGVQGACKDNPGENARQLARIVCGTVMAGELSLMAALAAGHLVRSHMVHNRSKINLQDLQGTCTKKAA
# Test Details: intrinsic HMG-CoA reductase inhibition activity, in vitro protocol of J. Med. Chem., 1985, 28, page 347
# Format: biochemical
# Details: tested as the potassium salt
# Protocol: The intrinsic HMG-CoA reductase inhibition activity of the claimed compounds is measured in the in vitro protocol described is J. Med. Chem., 1985, 28, page 347.
Measured Endpoint: IC50 (µM)
A number alone suffices; assume µM.

# input Reported IC50 for C[C@@H]1CC[C@H]2C(=CC(O)[C@H](C)[C@@H]2CC[C@@H](O)C[C@@H](O)CC(=O)O)C1 (stereo partly shown) : what is it?
# output 5.87
